molecular target: PLK1 kinase domain (Homo sapiens, UniProt P53350); construct: made in house; host or cells: baculovirus-infected T. ni insect cells; assay: Assay for Inhibition of PLK1 (SPA enzyme activity); assay type: biochemical; details: 2 μM ATP, read-out: Ave pIC50 PLK Enzyme Inhibition (converted)
Sequence (P53350 21-346): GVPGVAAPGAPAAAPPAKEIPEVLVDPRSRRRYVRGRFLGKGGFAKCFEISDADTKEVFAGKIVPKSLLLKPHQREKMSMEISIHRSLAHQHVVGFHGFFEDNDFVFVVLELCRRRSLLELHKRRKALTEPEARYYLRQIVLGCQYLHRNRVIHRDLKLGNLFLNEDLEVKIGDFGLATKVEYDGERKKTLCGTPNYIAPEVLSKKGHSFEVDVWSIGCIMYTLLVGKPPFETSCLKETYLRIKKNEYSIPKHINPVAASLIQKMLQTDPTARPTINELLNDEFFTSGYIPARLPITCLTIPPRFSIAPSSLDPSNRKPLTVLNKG
READOUT: IC50

COc1cc2ncn(-c3cc(OCc4ccccc4C(F)(F)F)c(C(N)=O)s3)c2cc1OCCN1CCN(C)CC1 : < 100 nM
Cc1ccccc1COc1cc(-n2cnc3cc(O)ccc32)sc1C(=O)O : < 100 nM
COc1cc2ncn(-c3cc(OS(=O)(=O)c4ccccc4C)c(C(N)=O)s3)c2cc1OC : < 100 nM
COC(=O)c1sc(-n2cnc3cc(OC)c(OC)cc32)cc1OS(=O)(=O)C(F)(F)F : 100 to 10000 nM
NC(=O)c1sc(-n2cnc3ccc(OCC(F)(F)F)cc32)cc1OCc1ccccc1C(F)(F)F : < 100 nM
NC(=O)c1sc(-n2cnc3ccccc32)cc1OCc1ccccc1[N+](=O)[O-] : < 100 nM
NC(=O)c1sc(-n2cnc3ccc(C(F)(F)F)cc32)cc1OCc1ccccc1Br : < 100 nM
Cc1cccc(COc2cc(-n3cnc4ccccc43)sc2C(N)=O)c1 : < 100 nM
COc1cc2ncn(-c3cc(OCc4cccc(I)c4)c(C(N)=O)s3)c2cc1OC : < 100 nM
COc1cc2ncn(-c3cc(OCc4ccccc4C(F)(F)F)c(C(N)=S)s3)c2cc1OC : < 100 nM
COc1cc2c(cc1OCCCN1CCCC1=O)ncn2-c1cc(OCc2ccccc2C(F)(F)F)c(C(N)=O)s1 : < 100 nM
COc1cc2ncn(-c3cc(OCc4ccccc4Br)c(C(=O)O)s3)c2cc1OC : < 100 nM
C=Cc1ccccc1COc1cc(-n2cnc3cc(OC)c(OC)cc32)sc1C(N)=O : < 100 nM
NC(=O)c1sc(-n2cnc3cc4c(cc32)OCCO4)cc1OCc1ccccc1C(F)(F)F : < 100 nM
CS(=O)(=O)c1ccc2ncn(-c3cc(OCc4ccccc4C(F)(F)F)c(C(N)=O)s3)c2c1 : < 100 nM
COc1cc2ncn(-c3cc(OCc4cccc(N)c4)c(C(N)=O)s3)c2cc1OC : < 100 nM
COc1cc2ncn(-c3cc(OCc4ccccc4C(F)(F)F)c(C#N)s3)c2cc1OC : 100 to 10000 nM
